Target: baboon EL (baboon)
Test: cell-based or functional assay
Here the recorded Neutralizing activity IC50 is given for each entry.
Write the number in nM without appending the unit.

Here's what some known entries look like.
{"columns": ["Binder", "Neutralizing activity IC50 [nM]"],
 "data": [
  ["14E1 (antibody, mouse IgG1, V domains shown, mouse IgG1 from hybridoma) VH: QVQLQQSGAELVKPGASVRLSCKASGYTFTKYTIHWVKQRSGQGLEWIGWFYPGSDSIKYNEKFKDKATLTADKSSRTVYMELSRLTSEDSAVYFCARHEEYTNSLAYWGQGTLVTVSA VL: DIQMTQTTSSLSASLGDRVTISCRASQDISNYLNWYQQQPDGTVKLLIYYTSRLHSGVPSRFSGSGSGTDYSLTISNLEQEDIATYFCQQGYTLPWTFGGGTNLEIK", 3.3],
  ["13B3 (antibody, mouse IgG2a, V domains shown, mouse IgG2a from hybridoma; also called 13B3 (mouse mAb)) VH: EVQLQQSGPELLKPGASVKISCKASGYTFTEYTMHWVKQSHGKSLEWIGSINPYYGGTSYNEKFKDKATLTVDKSSNTAYMEFRSLTSEDCAVYYCARYGNYVGYFDYWGQGTTLTVSS VL: ENVLTQSPAIMSASLGEKVTMSCRASSSVHYMYWYQQKSDASPKLWIYYTSNLAPGVPDRFSGSGSGNSYSLTISSMEGEDAATYYCQQFTSSPYTFGGGTKLEIK", 2.6]
]}

Pending binder:
Inquiry: Entry 7D4 (antibody, mouse IgG1, V domains shown, mouse IgG1 from hybridoma) VH: QIQLVQSGPELKKPGETVKISCKASGYTFTNYGMNWVKQAPGKDLKWMGWINTYSGVPTYADDFKGRFAFSLETSASTAYLQINNLKNEDTATYFCARFSYYGRHYFDYWGQGTTLTVSS VL: DIVLTQSPASLAVSLGQRATISCKASQSVDYDGDSYMNWYQQKPGQPPQLLIYAASNLGSGIPARFSGSGSGTDFTLNIHPVEEEDAATYYCHQSTDDPPWTFGGGTKLEIK : reported Neutralizing activity IC50 = ?
Reply text: 2.6
